- TESTED TARGET: APOL1 (Homo sapiens)
- Sequence (O14791 1-398): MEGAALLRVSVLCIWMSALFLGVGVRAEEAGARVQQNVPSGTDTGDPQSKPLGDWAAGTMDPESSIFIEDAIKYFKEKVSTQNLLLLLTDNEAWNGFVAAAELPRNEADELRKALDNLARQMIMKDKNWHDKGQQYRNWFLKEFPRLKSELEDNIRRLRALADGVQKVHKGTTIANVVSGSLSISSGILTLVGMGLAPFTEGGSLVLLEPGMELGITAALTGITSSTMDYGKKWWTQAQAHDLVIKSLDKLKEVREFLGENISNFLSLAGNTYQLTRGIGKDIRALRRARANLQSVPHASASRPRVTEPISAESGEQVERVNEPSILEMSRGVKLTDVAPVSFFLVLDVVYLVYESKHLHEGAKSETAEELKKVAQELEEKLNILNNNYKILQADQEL
- TEST SUMMARY: MultiTox-Fluor Multiplex Cytotoxicity Assay, tet-inducible APOL1 T-REx-HEK293 cells (G0, G1 or G2 clone not specified for Table 20)
- CONDITION NOTES: tet-induced, 24 hours with compound, ratio of dead to live cells, read-out: IP50 (i.e., IC50 for cell proliferation)
- Procedure: Human embryonic kidney (HEK293) cell lines containing a tet-inducible expression system (T-REx™; Invitrogen, Carlsbad, CA) and Adeno-associated virus site 1 pAAVS1-Puro-APOL1 G0 or pAAVS1-Puro-APOL1 G1 or pAAVS1-Puro-APOL1 G2 Clones G0 DC2.13, G1 DC3.25, and G2 DC4.44 were grown in a T-225 flask at ˜90% confluency in cell growth media (DMEM, 10% Tet-free FBS, 2 mM L-glutamine, 100 Units/mL penicillin-streptomycin, 5 μg/mL blasticidin S HCl, 1 μg/mL puromycin dihydrochloride). […]
pIC50: −log10 of the molar value.
MEASURED ENDPOINT: pIC50

Summary for this compound, CNS(=O)(=O)CCn1cc(CN2CC[C@]3(C[C@@H]2C)OCCc2ccc(Cl)cc23)cn1 : pIC50 is ≥ 7.30

Summary for this compound, NC(=O)C1OC2(CCN(Cc3cnn4cccnc34)CC2)c2cc(Cl)ccc21 (centres unmarked) : pIC50 is 6.30 to 7.30

Summary for this compound, Cn1cc(CN2CCC3(CC2)OC(C(N)=O)c2ccc(Cl)cc23)c(=O)n(C)c1=O (centres unmarked) : pIC50 is ≤ 6.30

Summary for this compound, NC(=O)C1OC2(CCN(Cc3cnc(C4CC4)o3)CC2)c2cc(Cl)ccc21 (centres unmarked) : pIC50 is 6.30 to 7.30

Summary for this compound, C[C@H]1C[C@@]2(CCN1Cc1cn(CC(O)C(C)(C)O)nn1)OCCc1ccc(Cl)cc12 (some centres unmarked) [Compound 143] : pIC50 is ≥ 7.30

Summary for this compound, Cc1ccc2c(c1)C1(CCN(Cc3cnn(CCS(C)(=O)=O)c3)[C@@H](C)C1)CC2O (some centres unmarked) : pIC50 is ≥ 7.30

Summary for this compound, N#Cc1ccc2c(c1)C1(CCN(Cc3cnn(-c4ccccc4)c3)CC1)OC2C(N)=O (centres unmarked) : pIC50 is ≥ 7.30

Summary for this compound, C[C@H]1C[C@@]2(CCN1Cc1cncnc1)OCCc1ccc(Cl)cc12 : pIC50 is ≥ 7.30

Summary for this compound, N#Cc1cc(CN2CCC3(CC2)C(=O)Nc2ccc(Cl)cc23)ccn1 : pIC50 is ≤ 6.30

Summary for this compound, Cc1ncc(CN2CC[C@]3(C[C@@H]2C)OCCc2ccc(Cl)cc23)cn1 : pIC50 is ≥ 7.30

Summary for this compound, CN1C(=O)C2(CCN(Cc3cnn(CC(C)(C)O)c3)CC2)c2cc(Cl)ccc21 : pIC50 is ≥ 7.30

Summary for this compound, Cc1ccc2c(c1)[C@]1(CCN(Cc3cnn(CC(C)(CO)CO)c3)[C@@H](C)C1)OCC2 : pIC50 is ≥ 7.30

Summary for this compound, CS(=O)(=O)CCn1cc(CN2CCC3(CC2)C(=O)Nc2c(CO)cc(Cl)cc23)cn1 : pIC50 is ≥ 7.30

Summary for this compound, Cc1ccc2c(c1)C1(CCN(Cc3cnn(CCO)c3)[C@@H](C)C1)OCC2 (some centres unmarked) [Compound 99] : pIC50 is ≤ 6.30

Summary for this compound, CN1C(=O)C2(CCN(Cc3cnn(CC4(O)CCS(=O)(=O)CC4)c3)CC2)c2cc(Cl)ccc21 : pIC50 is 6.30 to 7.30

Summary for this compound, CS(=O)(=O)CCn1cc(CN2CCC3(CC2)C(=O)N(CC(F)(F)F)c2ccc(Cl)cc23)cn1 : pIC50 is 6.30 to 7.30

Summary for this compound, Cc1nc(CN2CCC3(CC2)OC(C(N)=O)c2ccc(Cl)cc23)c[nH]1 (centres unmarked) : pIC50 is ≤ 6.30
